Cited source for all entries: ChEMBL document CHEMBL6120981

test: Plasma protein binding in rat; assay type: ADME, cell-free; settings: read-out: PPB (converted)

[
  {
    "compound structure string": "CCn1c(CNC(=O)c2nc3cc[nH]c3nc2N)[n+](CC)c2ccc(C(=O)N3CCC(N(C[C@H](O)[C@@H](O)[C@H](O)[C@H](O)CO)C[C@H](O)[C@@H](O)[C@H](O)[C@H](O)CO)CC3)cc21.O=C(O)C(F)(F)F.O=C([O-])C(F)(F)F",
    "fraction unbound": 0.9
  }
]

====

The following compounds are shown together with reported logD values.
test: Lipophilicity, log D of the compound; type: physicochemical; settings: octanol/water

[
  {
    "compound structure string": "CCn1c(CNC(=O)c2nc3cc[nH]c3nc2N)[n+](CC)c2ccc(C(=O)N3CCC(N(C[C@H](O)[C@@H](O)[C@H](O)[C@H](O)CO)C[C@H](O)[C@@H](O)[C@H](O)[C@H](O)CO)CC3)cc21.O=C(O)C(F)(F)F.O=C([O-])C(F)(F)F",
    "censoring sign": "=",
    "logD": 2.8
  },
  {
    "compound structure string": "CCn1c(CNC(=O)c2nc3cc[nH]c3nc2N)[n+](C)c2ccc(OC)cc21.O=C[O-]",
    "censoring sign": "=",
    "logD": 1
  },
  {
    "compound structure string": "CCn1c(CNC(=O)c2nc3cc[nH]c3nc2N)[n+](CC)c2ccc(OCCCN(C[C@H](O)[C@@H](O)[C@H](O)[C@H](O)CO)C[C@H](O)[C@@H](O)[C@H](O)[C@H](O)CO)cc21.O=C(O)C(F)(F)F.O=C([O-])C(F)(F)F",
    "censoring sign": "=",
    "logD": 1
  },
  {
    "compound structure string": "CCn1c(CNC(=O)c2nc3cc[nH]c3nc2N)[n+](CC)c2ccc(C(=O)NCCCN)cc21",
    "censoring sign": "=",
    "logD": 0
  },
  {
    "compound structure string": "CCn1c(CNC(=O)c2nc3cc[nH]c3nc2N)[n+](CC)c2ccc(OCCN)cc21",
    "censoring sign": "=",
    "logD": 1
  },
  {
    "compound structure string": "CCn1c(CNC(=O)c2nc(Cl)cnc2N)[n+](C)c2ccc(OC)cc21",
    "censoring sign": "=",
    "logD": 0.9
  },
  {
    "compound structure string": "CCn1c(CNC(=O)c2nc3cc[nH]c3nc2N)[n+](CC)c2ccc(C(=O)NC3CCN(C[C@H](O)[C@@H](O)[C@H](O)[C@H](O)CO)CC3)cc21.O=C(O)C(F)(F)F.O=C([O-])C(F)(F)F",
    "censoring sign": "=",
    "logD": 1
  },
  {
    "compound structure string": "CCn1c(CNC(=O)c2nc3cc[nH]c3nc2N)[n+](CC)c2ccc(C(=O)NCCCN(C[C@H](O)[C@@H](O)[C@H](O)[C@H](O)CO)C[C@H](O)[C@@H](O)[C@H](O)[C@H](O)CO)cc21.O=C(O)C(F)(F)F.O=C([O-])C(F)(F)F",
    "censoring sign": "=",
    "logD": 1
  },
  {
    "compound structure string": "CCn1c(CNC(=O)c2nc(C)cnc2N)[n+](C)c2ccc(OC)cc21",
    "censoring sign": "<",
    "logD": 1
  },
  {
    "compound structure string": "CCn1c(CNC(=O)c2nc3ccn(C)c3nc2N)[n+](C)c2ccc(OC)cc21",
    "censoring sign": "=",
    "logD": 0.8
  }
]
